meta.source: patent US7771978B2

Target: Egghead β1-4-mannosyltransferase (Drosophila melanogaster)
Construct: a secreted version of egghead was prepared as described for the full length construct; made in house; host or cells: baculovirus-infected Sf9 and High Five insect cells (microsomal fractions)
Sequence (O01346 1-457): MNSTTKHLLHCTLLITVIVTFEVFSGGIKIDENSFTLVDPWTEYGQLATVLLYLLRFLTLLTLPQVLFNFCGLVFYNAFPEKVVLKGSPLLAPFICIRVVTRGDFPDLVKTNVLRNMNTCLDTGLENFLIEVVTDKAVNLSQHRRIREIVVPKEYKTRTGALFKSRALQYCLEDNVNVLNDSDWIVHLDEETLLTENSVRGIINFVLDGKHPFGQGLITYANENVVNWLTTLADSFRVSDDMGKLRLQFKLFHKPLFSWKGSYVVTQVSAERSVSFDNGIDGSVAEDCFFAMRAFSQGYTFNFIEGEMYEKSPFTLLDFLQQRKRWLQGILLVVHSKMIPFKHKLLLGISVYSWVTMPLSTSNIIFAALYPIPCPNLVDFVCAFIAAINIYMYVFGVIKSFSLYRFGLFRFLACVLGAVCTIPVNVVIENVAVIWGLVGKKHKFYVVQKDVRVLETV
Test: Egghead mannosyltransferase enzyme assay with soluble acceptor and donor substrates (microsomal fractions)
Format: biochemical
Settings: acceptor substrate 1 mM; microsomes of pVL-Egghead infected High Five cells; GalNAc-T4 background subtracted; GDP-Man donor
assay-readout: Substrate specificities of Egghead β1-4-mannosyltransferase, activity at 1 mM
Please make sure the unit comes right after the number.

Illustrative cases are given below, each with its answer.
O=[N+]([O-])c1ccc(O[C@@H]2O[C@H](CO)[C@@H](O)[C@H](O)[C@H]2O)cc1; 378.6 nmol/h/mg
Cc1cc(=O)oc2cc(O[C@@H]3O[C@H](CO)[C@@H](O)[C@H](O)[C@H]3O)ccc12 [Glcα1-MeUmb]; 1.2 nmol/h/mg
CCCCCCCCO[C@@H]1O[C@H](CO)[C@@H](O[C@@H]2O[C@H](CO)[C@@H](O)[C@H](O)[C@@H]2O)[C@H](O)[C@H]1O; 0.0 nmol/h/mg

Now turn to the next compound.
Lab request: please report Substrate specificities of Egghead β1-4-mannosyltransferase, activity at 1 mM under test system Egghead β1-4-mannosyltransferase (Drosophila melanogaster) for Cc1cc(=O)oc2cc(O[C@@H]3O[C@H](CO)[C@@H](O)[C@H](O)[C@H]3O)ccc12 [Glcβ1-MeUmb]
330.0 nmol/h/mg

###

Target: Egghead β1-4-mannosyltransferase (Drosophila melanogaster)
Construct: a secreted version of egghead was prepared as described for the full length construct; made in house; host or cells: baculovirus-infected Sf9 and High Five insect cells (microsomal fractions)
Sequence (O01346 1-457): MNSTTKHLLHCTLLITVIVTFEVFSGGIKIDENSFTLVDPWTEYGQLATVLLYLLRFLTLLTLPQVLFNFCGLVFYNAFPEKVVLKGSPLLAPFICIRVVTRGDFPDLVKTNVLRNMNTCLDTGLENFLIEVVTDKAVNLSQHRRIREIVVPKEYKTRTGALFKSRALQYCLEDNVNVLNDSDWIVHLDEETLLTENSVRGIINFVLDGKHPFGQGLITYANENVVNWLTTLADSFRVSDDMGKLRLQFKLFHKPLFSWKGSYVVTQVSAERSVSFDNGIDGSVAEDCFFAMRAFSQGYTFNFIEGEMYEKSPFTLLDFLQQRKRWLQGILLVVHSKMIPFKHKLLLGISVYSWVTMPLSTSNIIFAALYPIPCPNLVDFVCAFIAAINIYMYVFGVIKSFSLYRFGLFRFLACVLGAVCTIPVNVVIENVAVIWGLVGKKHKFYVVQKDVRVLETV
Assay: Egghead mannosyltransferase enzyme assay with soluble acceptor and donor substrates (microsomal fractions)
Assay type: biochemical
Conditions: acceptor substrate 1 mM; microsomes of pVL-Egghead infected High Five cells; GalNAc-T4 background subtracted; GDP-Man donor
Measured Substrate specificities of Egghead β1-4-mannosyltransferase, activity at 1 mM accompanies every entry in the list below.
All answers are understood in nmol/h/mg, so give the number only.

Solved entries:
CC(=O)N[C@H]1[C@H](Oc2ccc([N+](=O)[O-])cc2)O[C@H](CO)[C@@H](O)[C@@H]1O; 0.0
Cc1cc(=O)oc2cc(O[C@@H]3O[C@H](CO)[C@H](O)[C@H](O)[C@H]3O)ccc12; 0.0
CCCCCCCCO[C@@H]1O[C@H](CO)[C@H](O)[C@H](O)[C@H]1O; 0.0
Cc1cc(=O)oc2cc(O[C@@H]3OC[C@@H](O)[C@H](O)[C@H]3O)ccc12; 0.0
CCCCCCCCO[C@H]1O[C@H](CO)[C@@H](O)[C@H](O)[C@H]1O; 3.6
CC(=O)N[C@H]1[C@H](Oc2ccc3c(C)cc(=O)oc3c2)O[C@H](CO)[C@@H](O)[C@@H]1O; 0.2
O=[N+]([O-])c1ccc(O[C@@H]2O[C@H](CO)[C@H](O)[C@H](O)[C@H]2O)cc1; 0.0
CC(=O)N[C@H]1[C@H](Oc2ccc([N+](=O)[O-])cc2)O[C@H](CO)[C@H](O)[C@@H]1O; 0.0

I would be grateful if you could share the reported Substrate specificities of Egghead β1-4-mannosyltransferase, activity at 1 mM for Cc1cc(=O)oc2cc(O[C@@H]3O[C@H](CO)[C@@H](O)[C@H](O)[C@@H]3O)ccc12 .
97

Then this molecule: CC(=O)N[C@H]1C(O)O[C@H](CO)[C@@H](O[C@@H]2O[C@H](CO)[C@@H](O)[C@H](O)[C@@H]2O)[C@@H]1O (some centres unmarked)
0.0

Cool, now C[C@@H]1O[C@H](Oc2ccc([N+](=O)[O-])cc2)[C@@H](O)[C@H](O)[C@@H]1O
0.0

// query: OC[C@H]1O[C@H](OCc2ccccc2)[C@@H](O)[C@@H](O)[C@@H]1O
0.0

Now this one: O=[N+]([O-])c1ccc(O[C@@H]2O[C@H](CO)[C@@H](O)[C@H](O)[C@@H]2O)cc1
98.6

Moving on to [2H]C([2H])([2H])C([2H])([2H])C([2H])([2H])C([2H])([2H])C([2H])([2H])C([2H])([2H])C([2H])([2H])C([2H])([2H])OC1([2H])O[C@]([2H])(C([2H])([2H])O)[C@@]([2H])(O)[C@]([2H])(O)[C@@]1([2H])O (stereo partly drawn) [Glcβ1-n-Octyl, n-octyl-β-glucoside]
442.8

###

Below, each of the compounds is paired with its reported Substrate specificities of Egghead β1-4-mannosyltransferase, activity at 5 mM value.
Target: Egghead β1-4-mannosyltransferase (Drosophila melanogaster)
Construct: a secreted version of egghead was prepared as described for the full length construct; made in house; host or cells: baculovirus-infected Sf9 and High Five insect cells (microsomal fractions)
Sequence (O01346 1-457): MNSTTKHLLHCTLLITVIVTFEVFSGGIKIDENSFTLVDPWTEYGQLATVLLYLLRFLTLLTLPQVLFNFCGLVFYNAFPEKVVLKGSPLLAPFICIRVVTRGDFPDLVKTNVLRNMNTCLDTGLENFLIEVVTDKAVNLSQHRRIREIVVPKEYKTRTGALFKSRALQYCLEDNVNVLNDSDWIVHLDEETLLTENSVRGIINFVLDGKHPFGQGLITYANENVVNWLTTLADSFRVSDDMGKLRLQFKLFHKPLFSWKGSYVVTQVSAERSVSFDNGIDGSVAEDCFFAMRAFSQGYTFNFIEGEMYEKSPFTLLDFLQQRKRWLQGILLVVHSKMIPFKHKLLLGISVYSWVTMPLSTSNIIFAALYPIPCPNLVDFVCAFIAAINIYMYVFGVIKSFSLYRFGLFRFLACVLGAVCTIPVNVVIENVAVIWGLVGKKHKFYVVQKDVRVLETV
Test: Egghead mannosyltransferase enzyme assay with soluble acceptor and donor substrates (microsomal fractions)
Type: biochemical
Settings: acceptor substrate 5 mM; microsomes of pVL-Egghead infected High Five cells; GalNAc-T4 background subtracted; GDP-Man donor
Give the number; nmol/h/mg is assumed, so skip it.

O=[N+]([O-])c1ccc(O[C@@H]2O[C@H](CO)[C@@H](O)[C@H](O)[C@@H]2O)cc1 [Manβ1-pNph]; 182.9
CC(=O)N[C@H]1C(O)O[C@H](CO)[C@@H](O[C@@H]2O[C@H](CO)[C@@H](O)[C@H](O)[C@@H]2O)[C@@H]1O (stereo partly drawn) [Manβ1-4GlcNAc]; 0.0
Cc1cc(=O)oc2cc(O[C@@H]3O[C@H](CO)[C@@H](O)[C@H](O)[C@H]3O)ccc12 [Glcβ1-MeUmb]; 611.4
CCCCCCCCO[C@@H]1O[C@H](CO)[C@H](O)[C@H](O)[C@H]1O [Galβ1-n-Octyl]; 0.0
[2H]C([2H])([2H])C([2H])([2H])C([2H])([2H])C([2H])([2H])C([2H])([2H])C([2H])([2H])C([2H])([2H])C([2H])([2H])OC1([2H])O[C@]([2H])(C([2H])([2H])O)[C@@]([2H])(O)[C@]([2H])(O)[C@@]1([2H])O (stereo partly drawn) [Glcβ1-n-Octyl, n-octyl-β-glucoside]; 732.6
C[C@@H]1O[C@H](Oc2ccc([N+](=O)[O-])cc2)[C@@H](O)[C@H](O)[C@@H]1O [Fucβ1-pNph]; 0.0

Give its Substrate specificities of Egghead β1-4-mannosyltransferase, activity at 5 mM value. Item: CCCCCCCCO[C@@H]1O[C@H](CO)[C@@H](O[C@@H]2O[C@H](CO)[C@@H](O)[C@H](O)[C@@H]2O)[C@H](O)[C@H]1O [Manβ1-4Glcβ1-n-Octyl]
0.0

And for CC(=O)N[C@H]1[C@H](Oc2ccc3c(C)cc(=O)oc3c2)O[C@H](CO)[C@@H](O)[C@@H]1O [GlcNAcβ1-MeUmb] ?
0.0

Now the compound CCCCCCCCO[C@H]1O[C@H](CO)[C@@H](O)[C@H](O)[C@H]1O [Glcα1-n-Octyl]
6.5

Also, Cc1cc(=O)oc2cc(O[C@@H]3O[C@H](CO)[C@@H](O)[C@H](O)[C@@H]3O)ccc12 [Manβ1-MeUmb] please.
171.4

Entry O=[N+]([O-])c1ccc(O[C@@H]2O[C@H](CO)[C@@H](O)[C@H](O)[C@H]2O)cc1 [Glcβ1-pNph] please
561.4

Quick one: Cc1cc(=O)oc2cc(O[C@@H]3O[C@H](CO)[C@@H](O)[C@H](O)[C@H]3O)ccc12 [Glcα1-MeUmb]
12.9
